- Study System: hKOR (Homo sapiens)
- Construct: expressed in transfected cells; host or cells: Human embryonic kidney cells 293 (293-KOR)
- Sequence (P41145 whole entry): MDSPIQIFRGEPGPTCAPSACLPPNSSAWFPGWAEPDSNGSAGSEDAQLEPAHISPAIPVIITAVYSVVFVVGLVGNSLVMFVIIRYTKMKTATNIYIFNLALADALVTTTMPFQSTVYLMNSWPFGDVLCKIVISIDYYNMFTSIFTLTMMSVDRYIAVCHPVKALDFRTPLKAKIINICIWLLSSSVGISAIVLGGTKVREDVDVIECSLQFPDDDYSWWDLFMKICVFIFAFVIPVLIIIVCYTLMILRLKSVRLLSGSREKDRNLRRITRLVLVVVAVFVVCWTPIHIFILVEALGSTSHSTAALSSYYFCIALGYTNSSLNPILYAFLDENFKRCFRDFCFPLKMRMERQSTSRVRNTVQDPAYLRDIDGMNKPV
- Procedure Summary: Agonistic function, cAMP method, 293-KOR cells
- Type: cell-based
- Setup Conditions: forskolin
Where no end group is shown, it is not given here.
Endpoint Label: EC50 (nM)

• YGGFLRRIRP [Dynorphin A1-10] = 0.65
